test system: mice; experiment: Motor activity in mice (exploratory activity in locomotion cage); assay type: in vivo; design: key: +: increase; -: decrease; 0: no effect; conditions: recorded for 10 minutes 1 hour after administration; compared to control groups; i.p.
READOUT KIND: Motor Activity

Study these solved cases before continuing.
In [3]: df
Out[3]:
                                   molecule    readout_kind  observed
0  CCN(CC)c1ccc(CC(C)N)cc1 (stereo not drawn) [H H C2 H5 C2 H5 H CH3]  Motor Activity         -
1  CC(N)Cc1ccc(N(C)C)cc1Cl.Cl.Cl (stereo not drawn) [H 2-Cl CH3 CH3 H CH3]  Motor Activity         -
2  CCC(N)Cc1ccc(N(C)C)cc1Cl (stereo not drawn) [H 2-Cl CH3 CH3 H C2 H5]  Motor Activity         0
3  CN(C)c1ccc(CC(C)(C)N)cc1.Cl.Cl [H H CH3 CH3 CH3 CH3]  Motor Activity         0
4  Cc1cc(N(C)C)ccc1CC(C)N.Cl.Cl (stereo not drawn) [H 2-CH 3 CH3 CH3 H CH3]  Motor Activity         -

Alright, here's another molecule for you.
Value of Motor Activity reported for the molecule CC(N)Cc1c(Cl)cc(N(C)C)cc1Cl.Cl.Cl (stereo not drawn) [2-Cl 6-Cl CH3 CH3 H CH3] is -
